The values you see were collected from patent US9346776B2.

Target: Human recombinant enteropeptidase (Homo sapiens)
Construct: purchased ITSI-Biosciences, LLC #REN-260
Experiment: Human enteropeptidase inhibitory activity
Assay type: biochemical
Details: 3.3 uM compound; fluorescence 2 hours after start of reaction; read-out: Inhibition rate at 3.3 uM (%)
Protocol: Test Example 1 Human enteropeptidase inhibitory activity Human recombinant enteropeptidase (#REN-260, ITSI-Biosciences, LLC) was diluted with an assay buffer (50 mM Tricine (pH 8.0), 0.01 (w/v) % Tween 20, 10 mM CaCl2) to prepare a 24 mU/mL enzyme solution. […] The fluorescence intensity was measured at an excitation wavelength of 485 nm and a fluorescence wavelength of 535 nm using a fluorescence plate reader EnVision (PerkinElmer Inc.). […]
measured.attribute: inhibition at 3.3 µM (%)

N=C(N)Nc1ccc(C(=O)Oc2ccc3c(c2)OC[C@H]3CC(=O)N[C@@H](CC(=O)O)C(=O)O)cc1 : 101
N=C(N)Nc1ccc(C(=O)Oc2ccc3c(c2)OC[C@@H]3CC(=O)N(CC(=O)O)CC(=O)O)cc1 : 100
N=C(N)Nc1ccc(C(=O)Oc2cc(F)c3c(c2)OCC3CC(=O)N[C@@H](CC(=O)O)C(=O)O)cc1 (stereo partly shown) : 100
N=C(N)Nc1ccc(C(=O)Oc2ccc3c(c2)OC[C@@H]3CC(=O)N[C@@H](CC(=O)O)C(=O)O)cc1 : 101
N=C(N)Nc1ccc(C(=O)Oc2ccc3c(c2)OC[C@@H]3CC(=O)N[C@H](CC(=O)O)C(=O)O)cc1 : 101
N=C(N)Nc1ccc(C(=O)Oc2ccc3c(c2)OC[C@@H]3CC(=O)N(CCC(=O)O)CCC(=O)O)cc1 : 100
N=C(N)Nc1ccc(C(=O)Oc2ccc3c(c2)OC[C@@H]3CC(=O)N[C@@H](CCC(=O)O)C(=O)O)cc1 : 101

---

Biological target: Human recombinant enteropeptidase (Homo sapiens, UniProt P98073)
Construct: purchased ITSI-Biosciences, LLC #REN-260
Sequence (P98073 whole entry): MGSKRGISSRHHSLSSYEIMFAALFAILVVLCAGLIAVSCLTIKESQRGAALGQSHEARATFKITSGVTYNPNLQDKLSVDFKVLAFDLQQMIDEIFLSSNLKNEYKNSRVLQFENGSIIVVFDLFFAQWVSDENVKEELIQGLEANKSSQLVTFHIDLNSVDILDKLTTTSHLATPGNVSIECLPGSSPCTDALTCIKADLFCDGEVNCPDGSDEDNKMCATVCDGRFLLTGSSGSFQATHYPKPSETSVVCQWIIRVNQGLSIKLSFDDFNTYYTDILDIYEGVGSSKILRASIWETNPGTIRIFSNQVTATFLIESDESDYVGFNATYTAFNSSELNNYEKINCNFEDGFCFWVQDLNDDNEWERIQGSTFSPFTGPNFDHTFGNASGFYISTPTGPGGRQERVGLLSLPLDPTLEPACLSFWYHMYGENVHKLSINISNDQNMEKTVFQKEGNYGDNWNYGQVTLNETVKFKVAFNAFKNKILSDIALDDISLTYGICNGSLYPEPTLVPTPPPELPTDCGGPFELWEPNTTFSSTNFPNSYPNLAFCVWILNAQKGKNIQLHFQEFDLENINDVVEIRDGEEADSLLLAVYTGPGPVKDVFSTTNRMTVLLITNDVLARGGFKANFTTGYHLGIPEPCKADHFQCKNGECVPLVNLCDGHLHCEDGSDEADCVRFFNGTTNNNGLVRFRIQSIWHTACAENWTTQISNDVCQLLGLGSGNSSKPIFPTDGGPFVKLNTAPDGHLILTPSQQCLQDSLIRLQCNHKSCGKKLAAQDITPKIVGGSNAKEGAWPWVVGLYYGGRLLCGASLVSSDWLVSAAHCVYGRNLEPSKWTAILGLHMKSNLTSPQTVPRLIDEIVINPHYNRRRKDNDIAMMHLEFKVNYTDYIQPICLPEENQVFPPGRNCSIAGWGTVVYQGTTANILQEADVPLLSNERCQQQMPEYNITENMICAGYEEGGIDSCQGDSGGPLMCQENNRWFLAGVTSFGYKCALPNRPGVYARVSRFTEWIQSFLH
Experiment: Human enteropeptidase inhibitory activity
Assay type: biochemical
Details: 3.3 uM compound; fluorescence 2 hours after start of reaction; read-out: Inhibition rate at 3.3 uM (%)
measured.attribute: inhibition at 3.3 µM (%)

Cc1c(OC(=O)c2ccc(NC(=N)N)cc2)ccc2c1OCC2CC(=O)N[C@@H](CC(=O)O)C(=O)O (stereo partly shown) : 98
Cc1cc(OC(=O)c2ccc(NC(=N)N)cc2)cc2c1C(CC(=O)N[C@@H](CC(=O)O)C(=O)O)CO2 (stereo partly shown) : 100
N=C(N)Nc1ccc(C(=O)Oc2ccc3c(c2)OC[C@H]3CC(=O)N[C@@H](CCC(=O)O)C(=O)O)cc1 : 101
N=C(N)Nc1ccc(C(=O)Oc2ccc3c(c2)OC[C@H]3CC(=O)N[C@H](CC(=O)O)C(=O)O)cc1 : 100
